# melting point per record follows

[[record]]
record_smiles = "Cc1cccc(C(=O)NC(C)C)c1NC(=O)c1cc(C(F)(F)F)nn1-c1ncccc1C(F)(F)F"
value_reported = "233 to 235 °C"

[[record]]
record_smiles = "CCn1nc(C(F)(F)F)cc1NC(=O)c1c(C)cccc1C(=O)NC(C)C"
value_reported = "200 to 204 °C"

[[record]]
record_smiles = "CNC(=O)c1cc(Cl)cc(C)c1NC(=O)c1cc(OCC(F)(F)F)nn1-c1ncccc1Cl"
value_reported = "215 to 217 °C"


Note: attention shifts to another entry.
Problem: melting point lookup needed for "CNC(=O)c1cc(Cl)cc(C)c1NC(=O)c1cc(Cl)nn1-c1ncccc1Cl" , thanks.
Solution: 205 to 207 °C

FYI, the data here is from patent US9173400B2.
